Recorded values, source PubChem BioAssay (NCI).

Provide the recorded growth for the entries that follow.
# Test system: HCT-15 colon
# protocolSummary: NCI-60 one-dose screen, 48 h (100 = growth as untreated, 0 = no growth, -100 = all killed)
# particulars: 10 µM
About 83,000 compounds went through this panel and 20% of them were active in at least one assay; those are over-represented in the sample as a whole.
Respond numerically; units are % and should not be typed.

According to the records, this molecule "O=c1[nH]c(-c2ccc(Cl)cc2)nc2sc3c(c12)CCCC3" displays growth of 81.1

So, "ClCC#CCSc1ncnc2c1ncn2CC#CCCl" ? Its growth was 30.1

Entry under test: "O=c1cc(-c2ccccc2)[nH]n1-c1nc2ccccc2[nH]1" . Its growth was 30.7

"COc1ccc([N+](=O)[O-])c(C(=O)O)c1" yielded growth of 98.5

The value of growth measured for the molecule "CN1CCCNc2c(c(=O)c2=O)NCCCN(C)CCCNc2c(c(=O)c2=O)NCCCN(C)CCCNc2c(c(=O)c2=O)NCCCN(C)CCCNc2c(c(=O)c2=O)NCCCN(C)CCCNc2c(c(=O)c2=O)NCCCN(C)CCCNc2c(c(=O)c2=O)NCCCN(C)CCCNc2c(c(=O)c2=O)NCCC1" turned out to be 62.4

Documented growth of "COc1ccc2c(c1)sc1nc(-c3ccccc3)c(-c3cccnc3)n12" : 84.6

According to the records, this molecule "O=C1/C(=C\c2ccccc2)CN(C(=O)c2ccccc2)C/C1=C\c1ccccc1" displays growth of -18.6
